tested on: SF-268; assay: NCI tumour cell line growth inhibition, 48 h
The source made the active and inactive calls. No stated cut-off is given here; in the data, active = GI50 up to about 1.1 µM and inactive = higher.
Tick one outcome: active, inactive

Past entries and their recorded results:
COMPOUND	QUALITATIVE LABEL
Cc1ccc(-c2c(C#N)c(-c3ccc([N+](=O)[O-])cc3)c(C#N)c(=O)n2NS(=O)(=O)c2ccc(C)cc2)cc1	inactive
Cc1n[n+](CC(=O)c2ccccc2)c2sc(N)nn12	inactive

[in] State the result this test recorded for NS(=O)(=O)C1CCCCC1C(=O)NNC(=O)C(=O)Nc1nnc(S)[nH]1 (stereo not given) .
[out] inactive

[in] Hi, do you know how `CCN(CC)Cc1nc2sc3c(c2c(=O)n1-c1ccccc1)CCCC3` came out in this test?
[out] inactive

----------
system: XF498; assay: NCI tumour cell line growth inhibition, 48 h
The source made the active and inactive calls. Rule as the data show it: active = GI50 up to about 1.1 µM and inactive = higher.
Return exactly one item of active, inactive

                                   compound  system_name  qualitative_label
0  CC(C)NC(=O)OCc1c2c(n(C)c1COC(=O)NC(C)C)-c1ccccc1CC2        XF498           inactive
1  Cc1ccc(S(=O)(=O)N2c3ccccc3[C@H]3CCC=C[C@H]32)cc1        XF498           inactive
2  N#CC1(C2SCC[S+]2[O-])C2=C(C(=O)c3ccccc3C2=O)N2CCCC21 (stereo not given)        XF498           inactive
3  O=C(Cc1nc2ccc(C(=O)c3ccccc3)cc2nc1O)C(=O)Nc1ccc(C(F)(F)F)cc1[N+](=O)[O-]        XF498           inactive
4  CCOC(=O)C(Cc1ccc2ccccc2c1)(Cc1ccc2ccccc2c1)C(C)=O        XF498           inactive

Okay, next one:
[in] Look up the recorded call for CC(=O)c1c2c(cc3c1CC1(C3)Cc3cc4c(c(C(=O)O)c3C1)CCC4)CCC2 (stereo not given) in this test.
[out] inactive

----------
tested on: MCF7; assay: NCI tumour cell line growth inhibition, 48 h
Activity calls are given as the source filed them. Rule as the data show it: active = GI50 up to about 1.1 µM and inactive = higher.
// allowed return values: active, inactive

>>> print(df.to_string())
                                   compound  qualitative_label
0  C=CCN1C[C@H](C)N([C@H](c2ccc(C(=O)N(CC)CC)cc2)c2cccc(OC)c2)C[C@H]1C [SNC-80]           inactive
1  C[C@]12CC[C@H](O)C[C@@H]1CC[C@@H]1[C@@H]2CC[C@]2(C)[C@@H](c3cc(C(F)(F)F)[nH]n3)CC[C@@H]12           inactive
2  CC(C)NC(=O)OCc1c2c(n(C)c1COC(=O)NC(C)C)-c1ccccc1CC2           inactive
3  COC(=O)C1CCCN1C(=O)C(Cc1cn(S(=O)(=O)c2ccc(C)cc2)cn1)NC(=O)OC(C)(C)C (centres undefined)           inactive
4  CCN(CC)C1Oc2cc3c(cc2C(c2cc(OC)c(OC)c(OC)c2)C1C)OCO3 (centres undefined)             active

--- query ---
[in] Record lookup: outcome of this test for `CN(C)c1ccc(/C=C2\N=C(N/N=C/c3ccc(N(C)C)cc3)NC2=O)cc1` ?
[out] inactive
